- tgt: EGFR^wt-TK (Homo sapiens)
- Construct: purchased Sino Biology Inc
- Sequence (P00533 25-1210): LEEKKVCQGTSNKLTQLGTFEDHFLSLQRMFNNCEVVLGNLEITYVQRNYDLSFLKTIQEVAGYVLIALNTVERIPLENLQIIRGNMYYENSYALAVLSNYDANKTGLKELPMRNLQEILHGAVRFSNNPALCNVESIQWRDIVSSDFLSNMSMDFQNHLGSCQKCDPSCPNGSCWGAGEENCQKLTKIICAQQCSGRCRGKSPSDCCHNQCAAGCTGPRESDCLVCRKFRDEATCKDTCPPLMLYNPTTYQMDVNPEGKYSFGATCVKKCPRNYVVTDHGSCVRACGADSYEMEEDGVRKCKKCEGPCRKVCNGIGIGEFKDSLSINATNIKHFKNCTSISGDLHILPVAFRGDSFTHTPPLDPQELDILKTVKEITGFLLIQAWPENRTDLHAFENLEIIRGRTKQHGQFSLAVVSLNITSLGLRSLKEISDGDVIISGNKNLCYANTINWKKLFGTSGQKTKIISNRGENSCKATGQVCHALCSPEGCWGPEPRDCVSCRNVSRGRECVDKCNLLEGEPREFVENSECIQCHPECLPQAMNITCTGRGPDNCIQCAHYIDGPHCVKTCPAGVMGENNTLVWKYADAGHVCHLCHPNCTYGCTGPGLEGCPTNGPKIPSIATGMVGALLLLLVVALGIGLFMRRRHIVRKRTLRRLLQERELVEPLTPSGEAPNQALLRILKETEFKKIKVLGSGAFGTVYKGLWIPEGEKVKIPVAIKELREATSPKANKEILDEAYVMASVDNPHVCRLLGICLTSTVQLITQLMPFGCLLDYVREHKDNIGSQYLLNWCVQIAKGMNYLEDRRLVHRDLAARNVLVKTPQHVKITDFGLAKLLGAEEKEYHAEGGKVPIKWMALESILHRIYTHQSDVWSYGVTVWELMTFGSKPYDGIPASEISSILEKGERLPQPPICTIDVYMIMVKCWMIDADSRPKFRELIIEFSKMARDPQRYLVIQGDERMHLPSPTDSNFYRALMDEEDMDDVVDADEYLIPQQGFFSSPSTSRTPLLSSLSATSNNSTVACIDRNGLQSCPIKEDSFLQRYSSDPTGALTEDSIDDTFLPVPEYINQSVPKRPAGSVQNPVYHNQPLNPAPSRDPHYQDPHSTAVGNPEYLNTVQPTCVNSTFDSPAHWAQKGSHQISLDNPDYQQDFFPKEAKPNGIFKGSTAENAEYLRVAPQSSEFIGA
- assay.remarks: In vitro EGFR^wt-TK assay (ELISA with recombinant EGFR)
- Format: biochemical
- condition.details: mean ± SD of three replicates
readout.type: IC50
Number first, unit second: that is the form wanted.

Note to self: IC50 recorded for Cn1c(COc2ccc(/C=N/c3cc(F)cc(F)c3)cc2)nc2ccccc2c1=O [5l] was 0.54 µM

Briefly, IC50 measured for Cn1c(COc2ccc(/C=N/c3ccc(F)c(F)c3)cc2)nc2ccccc2c1=O [5k] : 0.01 µM

The reported value for O=c1[nH]cc(F)c(=O)[nH]1 [5-Fluorouracil, reference compound] in terms of IC50 is 0.14 µM

Please fill in: IC50 reported for Cn1c(COc2ccc(/C=N/c3cccc(F)c3)cc2)nc2ccccc2c1=O [5g] = 0.047 µM
